conditions: 10 μM initial concentration; Complete (with NADPH); 45 min
We begin with a simple list: items and their reported Test Article remaining, percent of initial concentration.
Answer in %, number only, no unit symbol.

CCOC(=O)c1ccc(C#Cc2ccc3c(c2)C(C)(C)CCS3)nc1 [Tazarotene] :: 2.18

Given CC1(C)CCSc2ccc(C#Cc3ccc(C(=O)O)cn3)cc21 [Tazarotenic acid] , state its recorded Test Article remaining, percent of initial concentration.
77.8

Now consider CCOC(=O)c1ccc(C#Cc2ccc3c(c2)C(C)(C)CC[S+]3[O-])nc1 (stereo not shown) [Tazarotene sulfoxide] and answer again.
4.80

Now consider CCOC(=O)c1ccc(C#Cc2ccc3c(c2)C(C)(C)CC(OC(=O)c2ccccc2)S3)nc1 (stereo not shown) [Compound 4] and answer again.
63.2
